experiment: inhibitors of E-selectin induction by TNFa, primary screen, imaging, HUVEC, immunofluorescence, MLSMR starter and 10KST1 sets (AID 487); settings: HUVEC TNFalpha-induced E-selectin immunofluorescence imaging, at 2 µM; stronger effect = higher value;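 also: signal is fraction of cell area covered by stained E-selectin grains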
Active and inactive are the calls of the source.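 The calls were made as follows: active = visually confirmed hit in the image check and inhibition above 20%; inconclusive = visually confirmed hit but inhibition not above 20%; inactive = no visual hit in the image check.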
READOUT_KIND: inhibition

Example compounds with recorded inhibition:
{"columns": ["COMPOUND", "inhibition"],
 "data": [
  ["CCCC1(C(=O)OCC)NC(c2ccc(N(C)C)cc2)C2C(=O)N(c3ccc(F)cc3)C(=O)C21 (stereo not drawn)", "1.4% (inactive)"],
  ["Cc1cc(=O)[nH]c(COc2ccccc2)n1", "-104% (inactive)"],
  ["CCCCc1nc2sc3c(c2c(=O)[nH]1)CCC3", "8% (inactive)"],
  ["Cc1cccc(NC(=O)CS(=O)(=O)c2cn(C)c3ccccc23)c1", "-12.5% (inactive)"],
  ["c1ccc(-n2c(Sc3cnccn3)nnc2-c2cccs2)cc1", "-37.1% (inactive)"]
]}

Consider the compound shown here: O=C(CCCOc1ccccc1)N1CCN(c2ccccn2)CC1 What is its recorded inhibition?
-18.6% (inactive)

Consider the compound shown here: COc1ccc(C2NC3=C(CCC3)C3(C#N)C(OC)(OC)N=C(N)C23C#N)cc1 (stereo not drawn) What is its recorded inhibition?
-35.8% (inactive)

====

molecular target: Alpha-2C adrenergic receptor (Homo sapiens); experiment: modulators of alpha2C/GIRK thallium flux, primary screen, cell-based, HEK293 alpha2C/GIRK1/2 (AID 624); settings: thallium flux BTC fluorescence, at 10 µM, actives lie on both sides;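 also: slope of fluorescence ratio to pre-addition baseline per second over 15 to 24 s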
READOUT_KIND: slope
The answer should be written as a number, with no unit following it.

Example compounds with recorded slope:
{"columns": ["COMPOUND", "READOUT_KIND", "READOUT_VALUE"],
 "data": [
  ["CCCCC(=O)NCCc1cc2c(C)ccc(C)c2[nH]c1=O", "slope", 0.00563],
  ["CCC(=O)Nc1ccc2nc(SCC(=O)N3CCCC3)sc2c1", "slope", 0.00507],
  ["CCc1ccccc1NC(=O)c1ccoc1C", "slope", 0.00456],
  ["O=C(c1cnn2c1NC(c1ccco1)CC2C(F)(F)F)N1CCN(c2cccc(Cl)c2)CC1 (stereo not drawn)", "slope", 0.00418],
  ["C=CCn1c(-c2ccc(OC)cc2)nc2ccccc21", "slope", 0.0046],
  ["O=C(c1ccc2c(c1)OCO2)N1CCCN(C(=O)c2ccc3c(c2)OCO3)CC1", "slope", 0.0056]
]}

Let us move to another entry and its slope.
Consider the compound shown here: COc1cc(OC)cc(-c2nnc(SCC(=O)Nc3cc(C)on3)o2)c1 What is its recorded slope?
0.00422

====

target: Voltage-gated potassium channel subunit beta-2 (Rattus norvegicus); assay: KvBeta positive modulators, primary screen, biochemical, NADPH fluorescence (AID 623); conditions: Recombinant KvBeta, NADPH fluorescence decrease slope, 10 min; at 10 µM; stronger effect = lower value;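 also: fluorescence intensity change per second fitted from 20 to 320 s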
READOUT_KIND: NADPH fluorescence slope
The answer should be written as a number, with no unit following it.

Example compounds with recorded NADPH fluorescence slope:
{"columns": ["COMPOUND", "TARGET_SYSTEM", "READOUT_VALUE"],
 "data": [
  ["CCOCCn1c(SC)nc2c1c(=O)[nH]c(=O)n2C", "Voltage-gated potassium channel subunit beta-2 (Rattus norvegicus)", "-3.7e-05"],
  ["Cc1ccnc(SCCn2c(N3CCN(Cc4ccccc4)CC3)nc3c2c(=O)[nH]c(=O)n3C)n1", "Voltage-gated potassium channel subunit beta-2 (Rattus norvegicus)", "-3.1e-05"],
  ["CCOC(=O)C1CCN(c2c(N(C)Cc3ccco3)c(=O)c2=O)CC1", "Voltage-gated potassium channel subunit beta-2 (Rattus norvegicus)", "-2.6e-05"],
  ["O=c1ccc(S(=O)(=O)N2CCC(Cc3ccccc3)CC2)c[nH]1", "Voltage-gated potassium channel subunit beta-2 (Rattus norvegicus)", "-5e-05"],
  ["O=C(Nc1ccc2c(c1)OCO2)C(c1ccc(Cl)cc1)N1CCN(C(=O)c2ccco2)CC1 (configuration not stated)", "Voltage-gated potassium channel subunit beta-2 (Rattus norvegicus)", "-3.7e-05"],
  ["COc1ccc(-c2nc3c(Br)c(N)c(Br)cc3o2)cc1", "Voltage-gated potassium channel subunit beta-2 (Rattus norvegicus)", "-2.1e-05"],
  ["COc1ccc(-n2c(=O)c3c4c(sc3n3c(C)nnc23)CCCC4)cc1", "Voltage-gated potassium channel subunit beta-2 (Rattus norvegicus)", "-2.4e-05"],
  ["COc1ccc(C(=O)NCc2nnc(SCC(=O)Nc3cc(C)cc(C)c3)o2)cc1OC", "Voltage-gated potassium channel subunit beta-2 (Rattus norvegicus)", "-1e-05"]
]}

Consider the compound shown here: Cc1cc2ccccn2c1C(=O)c1ccncc1 What is its recorded NADPH fluorescence slope?
9.9e-07

Consider the compound shown here: COc1ccc(OC)c2[nH]c(=O)c(CCNC(=O)C(C)C)cc12 What is its recorded NADPH fluorescence slope?
-1.8e-05

Consider the compound shown here: COc1ccc(S(=O)(=O)NC(C)C(=O)Nc2cccc(C(C)=O)c2)cc1 (configuration not stated) What is its recorded NADPH fluorescence slope?
-2.7e-05

Consider the compound shown here: COc1ccc(-c2nnc(SCC(=O)Nc3sc4c(c3C#N)CCC4)n2CC2CCCO2)cc1 (configuration not stated) What is its recorded NADPH fluorescence slope?
-5.3e-05

Consider the compound shown here: COC(=O)c1cc(-c2ccccc2)sc1NC(=O)c1cc(C)on1 What is its recorded NADPH fluorescence slope?
-1.3e-05

Numbers sourced from PubChem BioAssay.
